Values of IC50 for UniProtKB P08581, collected from a number of published sources:

Reference set (7 entries):
smiles.input | observed.value
COc1cc2nccc(Oc3ccc(NC(=O)c4ccn(-c5ccc(F)cc5C)n4)cc3F)c2c2c1OCCO2 | 50 to 500 nM
CN1CCOc2c1cc(C(=O)Nc1ccc(Oc3ccnc(N)c3)c(F)c1)c(=O)n2-c1ccc(F)cc1 | 10 to 100 nM
CN(C)CCCOC(=O)Nc1cccc(Cn2nc(-c3cccc(Cl)c3)ccc2=O)c1 | 10 to 1000 nM
CCOC(=O)COc1ccc(-c2cnc(N)c(-c3cc4c(Cl)ccc(F)c4cn3)c2)cc1 | 1000 to 20000 nM
CNCCOc1ccc2c(Oc3c(F)cc(NC(=O)c4cccnc4OC4CC4)cc3F)ccnc2c1 | ≤ 100 nM
Nc1ncc(-c2ccncc2)cc1-c1cc2c(Cl)ccc(F)c2cn1 | 1000 to 20000 nM
Nc1ncc(-c2cnn(C3CCNCC3)c2)cc1-c1nc2cccc(F)c2s1 | 100 to 1000 nM

The measured IC50 that CN(C)c1c(C(=O)Nc2ccc(Oc3ccnc(N)c3)c(F)c2)c(=O)n(-c2ccc(F)cc2)c2scnc12 showed for UniProtKB P08581 is 10 to 100 nM
